Every entry's value here was drawn from paper PMC6891772.

Can you tell me IC50 for the items I'm about to list?
Target: arylamine-N-acetyltransferase (TBNAT) (Mycobacterium tuberculosis, UniProt P9WJI5)
Sequence (P9WJI5 whole entry): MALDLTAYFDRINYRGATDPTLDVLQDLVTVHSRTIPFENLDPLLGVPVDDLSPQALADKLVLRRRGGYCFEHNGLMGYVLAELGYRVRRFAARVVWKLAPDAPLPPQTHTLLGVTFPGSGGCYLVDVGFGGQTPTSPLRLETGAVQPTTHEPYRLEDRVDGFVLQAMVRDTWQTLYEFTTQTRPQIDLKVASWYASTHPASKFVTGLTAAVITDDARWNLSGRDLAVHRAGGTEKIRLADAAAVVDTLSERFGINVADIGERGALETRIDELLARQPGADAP
Give bare numbers, in µM.

NNC(=O)c1ccncc1 : 5.9

We now examine a further compound.
# get_value(readout= IC50, system= arylamine-N-acetyltransferase (TBNAT) (Mycobacterium tuberculosis, UniProt P9WJI5)) for CC(=O)O[C@H]1CC(C)(C)C(=C=C/C(C)=C/C=C/C(C)=C/C=C/C=C(C)/C=C/C=C(\C)C(=O)C[C@@]23O[C@]2(C)C[C@@H](O)CC3(C)C)[C@](C)(O)C1 4.8
